Tested on: NCI/ADR-RES ovarian
Test: NCI tumour cell line growth inhibition, 48 h
quantity: TGI

Form: molecule = COC(=O)C1=Nc2c(C)nn(-c3ccccc3)c2N=C(c2ccc(C)cc2)C1 ; TGI = > 10 µM

Form: molecule = COc1cc([C@@H]2c3cc4c(cc3[C@@H](NCCNCCO)[C@H]3COC(=O)[C@H]23)OCO4)cc(OC)c1O ; TGI = > 100 µM

Form: molecule = O=C(c1cc(Cl)cc(Cl)c1)N(C(=S)OC12CC3CC(CC(C3)C1)C2)c1ccccc1 ; TGI = > 100 µM

Form: molecule = N#Cc1c(-c2ccccc2)/c(=C\O)c(=O)n2c1nc1ccccc12 ; TGI = > 100 µM

* * *

Give TGI for every item shown.
Test system: 786-0 renal
Experiment: NCI tumour cell line growth inhibition, 48 h

Form field, TGI with 786-0 renal, item NNC(=O)c1c(Cl)c(Cl)c(Cl)c(Cl)c1-c1nc2ccccc2[nH]1 : 55.8 µM

Form field, TGI with 786-0 renal, item CN1CCN(c2ccc3c4c(cccc24)C(=O)N(CCN2CCN(CCCN4CCN(CCN5C(=O)c6cccc7c(N8CCN(C)CC8)ccc(c67)C5=O)CC4)CC2)C3=O)CC1 : 6.87 µM

Form field, TGI with 786-0 renal, item OCCN(CCO)c1ccc2c(C(F)(F)F)cc(C(F)(F)F)nc2n1 : > 100 µM

Form field, TGI with 786-0 renal, item O=c1c2ccc3cccc4c(=O)cc(c5ccccc15)-c2c34 : > 100 µM

Form field, TGI with 786-0 renal, item CC(=O)Nc1ccc(CNc2cc(=O)[nH]c(=O)[nH]2)cc1 : > 100 µM

Form field, TGI with 786-0 renal, item COC(=O)C(CCC1C=CCC1)N=Cc1ccccc1 (stereo not given) : > 100 µM

Form field, TGI with 786-0 renal, item COc1ccc2[nH]cc(-c3nc(-c4cn(C)c5ccncc45)cs3)c2c1 : 2.9 µM

Form field, TGI with 786-0 renal, item CC(=O)N1CC2Nc3ccccc3C2CC1CO (stereo not given) : > 100 µM

Form field, TGI with 786-0 renal, item CCCN(CCC)c1ccc(CO)c(C)c1 : > 100 µM

Form field, TGI with 786-0 renal, item CN1CCC2(CC1)C(=O)N(N1CCCCCC1)C(=O)N2c1ccccc1 : > 100 µM

Form field, TGI with 786-0 renal, item CCOc1ccc2c(c1)/C(=C(\C(Cl)=C(Cl)Cl)[N+](=O)[O-])N2 : > 100 µM

Form field, TGI with 786-0 renal, item CN1C(c2ccccc2)=CC(=O)C(O)=C(c2ccccc2)S1(=O)=O : > 100 µM

Form field, TGI with 786-0 renal, item CCC(Sc1nnc2c3ccccc3n(CC)c2n1)C(=O)Nc1ccccc1OC (stereo not given) : > 100 µM

Form field, TGI with 786-0 renal, item NC1CC(=O)c2csc(Br)c21 (stereo not given) : > 50.7 µM

Form field, TGI with 786-0 renal, item Cn1c(COC(=O)N2CCCCC2)nc2c(N3CCOCC3)nc(-c3ccccc3)nc21 : 2 µM

Form field, TGI with 786-0 renal, item CCSC1=N/C(=C\c2ccccc2O)C(Nc2ccc(C)cc2)=N1 : > 100 µM

Form field, TGI with 786-0 renal, item c1ccc(N=C2SC(=NNc3ccccc3)SC2=Nc2ccccc2)cc1 : > 100 µM

Form field, TGI with 786-0 renal, item CC(C)C(=O)N[C@@H](C)C(=O)N(Cc1ccc2ccccc2c1)N=O : > 100 µM

Form field, TGI with 786-0 renal, item CC(c1ccc(Br)cc1)C(C(=O)O)C(=O)O (stereo not given) : > 100 µM

Form field, TGI with 786-0 renal, item O=c1cc(Cl)nc[nH]1 : > 100 µM

Form field, TGI with 786-0 renal, item O=S1(=O)CCN(Cc2ccccn2)CC1 : > 100 µM

Form field, TGI with 786-0 renal, item CCOP(=O)(Nc1ccc(-c2ccccc2)cc1)OCC : > 100 µM

Form field, TGI with 786-0 renal, item CCCN1C(=O)CCC2=C1CCc1c2ccc(Cl)c1Cl : > 100 µM

Form field, TGI with 786-0 renal, item CC1=CC(C)(C)N=C2SC(c3ccc(Cl)cc3)=NN12 : 32.8 µM

Form field, TGI with 786-0 renal, item CC(=O)C1=C(N=[N+]=[N-])c2cccc3cccc(c23)C1=O : 33.7 µM

Form field, TGI with 786-0 renal, item COc1ccc(C2SCC(=O)N2c2ccc(-c3ccc(-n4c(-c5ccccc5)nc5ccccc5c4=O)cc3)cc2)cc1 (stereo not given) : > 100 µM

Form field, TGI with 786-0 renal, item Cc1ccccc1C(=O)Oc1ccc(Oc2ccccc2)cc1 : > 100 µM

Form field, TGI with 786-0 renal, item COC(OC)c1cccc2c1C1(O)CCC3(CC21)OCCCCO3 (stereo not given) : > 100 µM

Form field, TGI with 786-0 renal, item Cc1nc2c(o1)C(=O)c1ccccc1/C2=N/c1ccccn1 : 58.7 µM

Form field, TGI with 786-0 renal, item CN(C)CCn1c2ccccc2c2nc3cc4ccccc4cc3nc21 : 16 µM

Form field, TGI with 786-0 renal, item O=C1c2ccccc2-c2nc(-c3cccnc3)cc3c2c1nc1ccccc13 : > 100 µM

Form field, TGI with 786-0 renal, item O=C(c1cc(Cl)cc(Cl)c1)N(C(=S)OC12CC3CC(CC(C3)C1)C2)c1ccccc1 : > 100 µM

Form field, TGI with 786-0 renal, item CCCNC(=S)N/N=C/c1cccc(C)n1 : > 100 µM

Form field, TGI with 786-0 renal, item Cc1cc(NS(=O)(=O)c2ccc(NC(=O)c3cccc4c(N)c5ccccc5nc34)cc2)no1 : 33.7 µM

Form field, TGI with 786-0 renal, item COc1cc(-c2[nH]ccc2Cl)oc1C1=C2N=C3C=C2C(C(C)C)C1CCCCCCCC3 (stereo not given) : 2.34 µM

Form field, TGI with 786-0 renal, item CC(C)C(C/C=C1/CC(CO)(COC(=O)CC(C(C)C)C(C)C)OC1=O)C(C)C (stereo not given) : 23.3 µM

Form field, TGI with 786-0 renal, item O=C(/C=C/c1ccc(O)c(O)c1)OCCc1cccc2ccccc12 : 12.7 µM

Form field, TGI with 786-0 renal, item [Cu+2].[O-]c1ccc2ccccc2c1N=Nc1ccccc1.[O-]c1ccc2ccccc2c1N=Nc1ccccc1 : > 100 µM

Form field, TGI with 786-0 renal, item COc1ccc2c(c1)c(C1(c3cn(C)c4ccc(OC)cc34)C(=O)Nc3ccc(F)cc31)cn2C : > 100 µM

Form field, TGI with 786-0 renal, item COc1ccc(/C=C2\CSC/C(=C\c3ccc(OC)c(OC)c3OC)C2=O)c(OC)c1OC : 48.1 µM

* * *

System: SNB-19 CNS
Assay: NCI tumour cell line growth inhibition, 48 h
quantity: GI50

Form: compound = COc1ccc(O)c(C(=O)c2ccc(C(=O)O[C@@H]3CCCNC[C@H]3NC(=O)c3ccncc3)cc2)c1F ; GI50 = 1.9 µM

Form: compound = Cn1c(COC(=O)N2CCCCC2)nc2c(N3CCOCC3)nc(-c3ccccc3)nc21 ; GI50 = 1.51 µM

Form: compound = COc1cccc(/C=N\Nc2ccc([N+](=O)[O-])cn2)c1O ; GI50 = 3.13 µM

* * *

Give TGI for every item shown.
System: SF-539 CNS
Assay: NCI tumour cell line growth inhibition, 48 h

Form: molecule = O=C1c2ccccc2CC12Cc1cc3c(cc1C2=O)CCC3 (configuration not stated) ; TGI = > 100 µM

Form: molecule = O=C(O)C1C2CC3C(OC(=O)C31)C2Br (configuration not stated) ; TGI = > 100 µM

Form: molecule = O=c1[nH]c2ccc(CC(=S)N3CCOCC3)cc2s1 ; TGI = > 100 µM

Form: molecule = Cc1c(-c2cc3n(n2)C(c2cccs2)C(C#N)=C(c2ccccc2)N3)c(=O)n(-c2ccccc2)n1C (configuration not stated) ; TGI = > 100 µM

Form: molecule = COc1cc(OC)c2c(=O)c(O)c(-c3ccc(OC)c(OC)c3)oc2c1 ; TGI = > 100 µM

Form: molecule = C(=C\c1csnn1)/c1cccnc1 ; TGI = > 100 µM

Form: molecule = O=C(O)/C(=C/c1ccccc1[N+](=O)[O-])c1ccccc1 ; TGI = > 100 µM

* * *

Give log10(TGI) for every item shown.
Tested on: SF-539 CNS
Test: NCI tumour cell line growth inhibition, 48 h
Would you kindly interpret these values as log10 of TGI expressed in µM?

Form: compound = O=C1OC(c2ccc(O)c(Cl)c2)(c2ccc(O)c(Cl)c2)c2ccc(Br)c3cccc1c23 (tested in a mixture with another compound) ; log10(TGI) = 1.51

Form: compound = CO[C@@H]1[C@@H](OC2OC(C)C(OC3CC(C)(O)C(OC(=O)CC(C)C)C(C)O3)C(N(C)C)C2O)[C@@H](CC=O)C[C@@H](C)C(=O)/C=C/C2O[C@H]2C[C@@H](C)OC(=O)C[C@H]1OC(C)=O (stereo not given in full) ; log10(TGI) = 1.59

Form: compound = COc1ccc2[nH]cc(-c3nc(-c4cn(C)c5ccncc45)cs3)c2c1 ; log10(TGI) = 0.53

Form: compound = CCCNCc1nc2ccc(Br)cc2c(=O)n1CCC ; log10(TGI) = 1.47

Form: compound = O=C1C=C(Nc2ccccc2C(=O)CC(=O)C(=O)Nc2cccc(C(F)(F)F)c2)c2ccccc2C1=O ; log10(TGI) = 1.69
